target: HLA-A*69:01; test: IEDB peptide-MHC binding, purified MHC/direct/fluorescence; filed as Kd, often an IC50 or EC50 that approximates it; bounds were set here for any values at or beyond the usual limits of such assays; details: source organism: Yersinia pestis CA88-4125

- SEQUENCE_ENTRY: "QQRPDLILV"
  TARGET_OR_TEST_SYSTEM: "HLA-A*69:01"
  Kd: "≥ 20 µM"

* * *

target: HLA-A*26:01; test: IEDB peptide-MHC binding, purified MHC/direct/fluorescence; filed as Kd, often an IC50 or EC50 that approximates it; bounds were set here for any values at or beyond the usual limits of such assays; conditions: source organism: Giardia lamblia ATCC 50803
We begin with a simple list: items and their reported Kd.

- SEQUENCE_ENTRY: "YQYGDNLIL"
  Kd: "≥ 20 µM"
- SEQUENCE_ENTRY: "YTDDYPMYK"
  Kd: "≥ 20 µM"
- SEQUENCE_ENTRY: "VYAYPSGEK"
  Kd: "≥ 20 µM"
